Below, Ki values reported for 5-hydroxytryptamine receptor 2A (Rattus norvegicus) across several publications.
Your answer should be a plain number; it is taken to be in nM.

| MOLECULE | READOUT_VALUE |
| --- | --- |
| COc1ccc(/C=C2/C(=O)N(CCCN3CCN(c4cccc(Cl)c4)CC3)c3ccccc32)cc1 | 20 |
| O=C(N[C@H]1CC(=O)N(CCN2CCN(c3cccc(Cl)c3)CC2)C1=O)C1CCCCC1 | 1410 |

Alright, here's another molecule for you.
Short answer for NCc1c2ccccc2cc2ccccc12 : Ki was 2300

----------
Below, log10(Ki) values reported for 5-hydroxytryptamine receptor 2A (Rattus norvegicus) across several publications.
Log10 applied to Ki; unit prior to transform: nM.

| MOLECULE | EXPERIMENTAL_SYSTEM | log10(Ki) |
| --- | --- | --- |
| c1ccc(N2CCN(Cc3cn(-c4ccccc4)nn3)CC2)cc1 | 5-hydroxytryptamine receptor 2A (Rattus norvegicus) | 3.75 |
| c1ccc2c(c1)OCC(COCCCN1CCC(c3nc4ccccc4o3)CC1)O2 (stereo unspecified) | 5-hydroxytryptamine receptor 2A (Rattus norvegicus) | 1.48 |
| c1ccc(OCCCN2CCc3[nH]c4ccccc4c3C2)cc1 | 5-hydroxytryptamine receptor 2A (Rattus norvegicus) | 1.30 |
| O=C(NC1CCN(Cc2ccc([N+](=O)[O-])cc2)CC1)c1ccc2ccccc2c1 | 5-hydroxytryptamine receptor 2A (Rattus norvegicus) | 2.44 |
| COc1ccccc1N1CCN(CCCCOc2ccc3c(C)c(C)c(=O)oc3c2)CC1 | 5-hydroxytryptamine receptor 2A (Rattus norvegicus) | 1.77 |

The recorded log10(Ki) with 5-hydroxytryptamine receptor 2A (Rattus norvegicus) for O=C1c2cc3ccccc3n2CCN1CCCCN1CCN(c2ccc(Cl)cc2Cl)CC1 was 2.48

The recorded log10(Ki) with 5-hydroxytryptamine receptor 2A (Rattus norvegicus) for Cc1cc2cc3c(cc2n1C)CCN3C(=O)Nc1cccnc1 was 3.50

The recorded log10(Ki) with 5-hydroxytryptamine receptor 2A (Rattus norvegicus) for COc1ccccc1N1CCN(CCCCc2ccc3c(c2)sc(=O)n3CCN2CCC(C(=O)c3ccc(F)cc3)CC2)CC1 was 0.30

The recorded log10(Ki) with 5-hydroxytryptamine receptor 2A (Rattus norvegicus) for O=c1ccc(OCCCCCN2CCC(c3noc4cc(F)ccc34)CC2)nn1-c1ccc(Cl)c(Cl)c1 was 1.40

----------
Below, Ki values reported for 5-hydroxytryptamine receptor 2A (Rattus norvegicus) across several publications.
Your answer should be a plain number; it is taken to be in nM.

| COMPOUND | Ki (nM) |
| --- | --- |
| CN1CCc2cc(Cl)c(O)cc2[C@@H](c2ccccc2)C1 | 10.8 |
| c1ccc2oc(-c3ccc(OCCCN4CCN(c5nsc6ccccc56)CC4)cc3)nc2c1 | 16.9 |
| Cn1c2c(c3ccccc31)CN(CCCOCc1ccccc1)CC2 | 225 |
| COc1cccc2c3c(n(C)c12)CCN(CCCOc1ccc(F)cc1)C3 | 120 |
| CCOc1ccccc1CNC(=N)NC(=O)NC | 400 |

Short answer for CCc1c(C)[nH]c2c1C(=O)C(CCN1CCOCC1)CC2 (stereo unspecified) : Ki was 912

Short answer for CC1(c2ccccc2)NC(=O)N(CCCN2CCN(c3cccc(Cl)c3)CC2)C1=O (racemic) : Ki was 312

Short answer for CCc1c(C)[nH]c2c1C(=O)CC(CN1CCC(C(=O)c3ccc(F)cc3)CC1)C2 (stereo unspecified) : Ki was 6.17

----------
Below, pKi values reported for 5-hydroxytryptamine receptor 2A (Rattus norvegicus) across several publications.
# pKi is unitless: minus log10 of the molar concentration; print number only

| MOLECULE | pKi |
| --- | --- |
| O=[N+]([O-])c1ccc(OC(CCN2CCN(c3n[o+][c-]4ccccc34)CC2)c2ccccc2)cc1 (stereo not given) | 7.27 |

The recorded pKi with 5-hydroxytryptamine receptor 2A (Rattus norvegicus) for COc1ccccc1N1CCN(CCN2C(=O)CC3(CCCCC3)C2=O)CC1 was 6.60

The recorded pKi with 5-hydroxytryptamine receptor 2A (Rattus norvegicus) for Nc1ccc(OC(CCC(=O)C2CCN(c3ccc(F)cc3)CC2)c2ccccc2)cc1 (stereo not given) was 7.79

The recorded pKi with 5-hydroxytryptamine receptor 2A (Rattus norvegicus) for O=c1ccc(OCCCN2CCN(Cc3ccccc3)CC2)nn1-c1ccc(Cl)c(Cl)c1 was 6.23

The recorded pKi with 5-hydroxytryptamine receptor 2A (Rattus norvegicus) for O=c1cc(-c2ccccc2)c2ccc(OCC(O)CN3CCC(c4noc5cc(F)ccc45)CC3)cc2o1 (stereo not given) was 5.80

The recorded pKi with 5-hydroxytryptamine receptor 2A (Rattus norvegicus) for COc1ccccc1N1CCN(CCc2ccc3c(c2)sc(=O)n3CCN2CCC(C(=O)c3ccc(F)cc3)CC2)CC1 was 7.70

The recorded pKi with 5-hydroxytryptamine receptor 2A (Rattus norvegicus) for Fc1ccccc1OC(CCN1CCN(c2nsc3ccccc23)CC1)c1ccccc1 (stereo not given) was 8.28

The recorded pKi with 5-hydroxytryptamine receptor 2A (Rattus norvegicus) for O=S(=O)(NCCCCN1CCN(c2cccc(Cl)c2)CC1)c1cccc2ccccc12 was 6.57

----------
Below, log10(Ki) values reported for 5-hydroxytryptamine receptor 2A (Rattus norvegicus, UniProt P14842) across several publications.
Log10 applied to Ki; unit prior to transform: nM.

Please review the entries below; each comes with its answer.
| MOLECULE | log10(Ki) |
| --- | --- |
| c1ccc(CCCCN2CCC(Cc3ccccc3)CC2)cc1 | 2.08 |
| O=C(NCCCN1CCN(c2ccc(F)cc2)CC1)c1ccccn1 | 2.21 |
| O=C1CC(CN2CCC(c3noc4cc(F)ccc34)CC2)Cc2sccc21 (stereo in doubt; (-)18h) | 1.07 |

Short answer for Fc1ccc(-c2cncc(CN3CCN(c4cccc5c4OCCO5)CC3)c2)cc1 : log10(Ki) was 2.86

Short answer for Cc1cc(OCCCCN2CCC(c3noc4cc(F)ccc34)CC2)cc2oc(=O)cc(C)c12 : log10(Ki) was 2.74

Short answer for Cc1cc(=O)oc2cc(OCCCCN3CCC(c4noc5cc(F)ccc45)CC3)ccc12 : log10(Ki) was 0.92

Short answer for COc1ccccc1N1CCN(CCCNc2nc3c(c(=O)n(C)c(=O)n3C)n2CCCc2ccccc2)CC1 : log10(Ki) was 2.48

Short answer for O=C(CCCN1CCN(CCC2Cc3cc(F)ccc3C2=O)CC1)c1ccc(F)cc1 (configuration not stated) : log10(Ki) was 1.73

Short answer for CN1CCN(c2nc(-c3cccs3)cc(-c3cccs3)n2)CC1 : log10(Ki) was 0.90

Short answer for CCCCCCc1ccc2c(c1)CCc1ccccc1C2CN (configuration not stated) : log10(Ki) was 2.80

Short answer for O=C(CCC(Oc1ccc([N+](=O)[O-])cc1)c1ccccc1)C1CCN(c2ccc(F)cc2)CC1 (configuration not stated) : log10(Ki) was 1.36

Short answer for COc1ccccc1N1CCN(CCCOc2ccc3[nH]cnc3c2)CC1 : log10(Ki) was 1.90

Short answer for O=C(N[C@H]1CC(=O)N(CCCN2CCN(c3cccc(Cl)c3)CC2)C1=O)C1CCCCC1 : log10(Ki) was 1.96

Short answer for Cn1c(=O)c2c(nc3nc(NCCN4CCN(c5ccccc5)CC4)c(Br)cn32)n(C)c1=O : log10(Ki) was 2.64

Short answer for O=c1c2ccccc2nnn1CCN1CCN(c2cccc3ccccc23)CC1 : log10(Ki) was 0.72

Short answer for c1ccc(N2CCN(CCCOc3ccc(-c4nc5ccccc5o4)cc3)CC2)nc1 : log10(Ki) was 3.37

Short answer for O=C(O)C1=CCN(C2CCC3(Cc4ccccc4Oc4ccccc43)C2)CC1 (configuration not stated) : log10(Ki) was 2.02

----------
Below, log10 of Ki values reported for 5-hydroxytryptamine receptor 2A (Rattus norvegicus, UniProt P14842) across several publications.
Log10 applied to Ki; unit prior to transform: µM.

| COMPOUND | EXPERIMENTAL_SYSTEM | READOUT_VALUE |
| --- | --- | --- |
| COc1ccccc1N1CCN(CCCCn2c(=O)c3ccccc3c(=O)n2-c2ccccc2)CC1 | 5-hydroxytryptamine receptor 2A (Rattus norvegicus, UniProt P14842) | -0.43 |
| Cn1c(=O)c2c(ncn2CCCCCN2CCc3ccccc3C2)n(C)c1=O | 5-hydroxytryptamine receptor 2A (Rattus norvegicus, UniProt P14842) | 1.21 |

The recorded log10 of Ki with 5-hydroxytryptamine receptor 2A (Rattus norvegicus, UniProt P14842) for O=C1c2ccccc2S(=O)(=O)N1CCCCN1CCN(c2cccc(C(F)(F)F)c2)CC1 was 0.35

----------
Below, Ki values reported for 5-hydroxytryptamine receptor 2A (Rattus norvegicus, UniProt P14842) across several publications.
Criterion: Ki strictly under 90 nM. Met: rule met. Not met: rule not met.

| SAMPLE_SMILES | ASSIGNED_LABEL |
| --- | --- |
| O=S(=O)(c1ccc(-n2cccn2)cc1)C1(F)CCN(CCc2ccc(F)cc2F)CC1 | rule met |
| Cn1c(=O)c2c(nc3n(CCCCN4CCN(c5cccc(Cl)c5)CC4)c(=O)ccn23)n(C)c1=O | rule not met |
| Cc1cccc(S(=O)(=O)NCCCCN=C(N)N2CCC(c3ccccc3)CC2)c1 | rule not met |

Decide: Ki of COc1ccccc1N1CCN(CCCCNC(=O)[C@@H]2CCCN2C(=O)C23CC4CC(CC(C4)C2)C3)CC1 strictly below 90 nM? rule not met
